The entries below come with measured binding signal values attached.
target: RELA (p65) subunit of heterodimer;p52 subunit (Homo sapiens;Homo sapiens, UniProt Q04206;Q00653 1-307;4-332); assay: protein binding microarray; high values mean tight binding; details: dsDNA, one strand shown
Sequence (Q04206 1-307, chain 1 of 2): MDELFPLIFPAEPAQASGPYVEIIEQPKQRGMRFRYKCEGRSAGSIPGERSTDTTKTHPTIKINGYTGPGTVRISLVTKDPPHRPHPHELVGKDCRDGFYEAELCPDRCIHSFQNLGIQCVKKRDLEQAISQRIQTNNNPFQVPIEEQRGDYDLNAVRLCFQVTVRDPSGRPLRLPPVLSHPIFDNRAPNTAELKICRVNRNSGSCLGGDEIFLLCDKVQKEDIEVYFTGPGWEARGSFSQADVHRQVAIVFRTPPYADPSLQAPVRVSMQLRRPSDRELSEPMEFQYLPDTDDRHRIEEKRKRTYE
Sequence (Q00653 4-332, chain 2 of 2): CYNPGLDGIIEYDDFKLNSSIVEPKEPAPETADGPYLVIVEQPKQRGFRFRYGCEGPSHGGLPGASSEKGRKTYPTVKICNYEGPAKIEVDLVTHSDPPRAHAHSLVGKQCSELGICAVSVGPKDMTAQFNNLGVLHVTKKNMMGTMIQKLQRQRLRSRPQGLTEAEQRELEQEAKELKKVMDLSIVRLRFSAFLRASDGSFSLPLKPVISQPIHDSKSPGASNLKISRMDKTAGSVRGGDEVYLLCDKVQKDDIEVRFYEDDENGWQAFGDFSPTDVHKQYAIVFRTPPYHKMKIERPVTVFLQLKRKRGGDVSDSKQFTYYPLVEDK
Return type: number; implicit unit z-score.

QUERY: Query binding signal for "CAGAGTATCCT"
RESULT: -1

QUERY: Query binding signal for "CAAGGATTCCC"
RESULT: 0.382

QUERY: Query binding signal for "GAAAGGTTCCC"
RESULT: -0.334

QUERY: Query binding signal for "GAGATCCTCCC"
RESULT: -0.539

QUERY: Query binding signal for "CGGGTCGTCCT"
RESULT: -0.834

***
QUERY: Query binding signal for "GGGGTAACCCT"
RESULT: 1.02

QUERY: Query binding signal for "GAATTTGTCCC"
RESULT: 0.944

QUERY: Query binding signal for "AGATTCGCCCC"
RESULT: 0.219

QUERY: Query binding signal for "CAGAGCATCCC"
RESULT: -1.02

QUERY: Query binding signal for "CGAAGGACCCT"
RESULT: -0.812

QUERY: Query binding signal for "AGAAGGCCCCT"
RESULT: 0.149

QUERY: Query binding signal for "GGGGTTGTCCC"
RESULT: 2.67

QUERY: Query binding signal for "AAGTGTTCCCC"
RESULT: 0.915

QUERY: Query binding signal for "CGAAGTTCCCT"
RESULT: 0.752

QUERY: Query binding signal for "AGGGTGGTCCC"
RESULT: 0.357

QUERY: Query binding signal for "GAATAGACCCT"
RESULT: -0.606

QUERY: Query binding signal for "CGAAGATCCCC"
RESULT: 1.15

QUERY: Query binding signal for "GGAATCGTCCC"
RESULT: 0.591

QUERY: Query binding signal for "GGAGTCGTCCT"
RESULT: -0.875

QUERY: Query binding signal for "GAAAGTTCCCT"
RESULT: 1.03

QUERY: Query binding signal for "AAGGTTATCCC"
RESULT: -0.074

QUERY: Query binding signal for "AAAGTCGTCCT"
RESULT: -0.839

QUERY: Query binding signal for "CGAGACGCCCC"
RESULT: -0.155

QUERY: Query binding signal for "CGATGCTCCCC"
RESULT: -0.196

QUERY: Query binding signal for "AAGTATTCCCT"
RESULT: 0.612

These data points were gathered from paper PMC3218832.
